Taken from patent US20100216779A1.

system: various cell lines of different tumor origins; experiment: Inhibition of cell proliferation, InCell Analyzer assay; type: cell-based; details: Homo sapiens, A 172, A172, glioma
pIC50: −log10 of the molar value.
MEASURED ENDPOINT: pIC50

COc1cc(N2CCC(N3CCCCC3)CC2)ccc1Nc1nccc(-c2c(-c3cccc(C(=O)Nc4c(F)cccc4F)c3)nc3ccccn23)n1    5.30 to 6.00

* * *

tested on: various cell lines of different tumor origins; test: Inhibition of cell proliferation, InCell Analyzer assay; format: cell-based; conditions: Homo sapiens, UACC-62, UACC-62, Skin
MEASURED ENDPOINT: IC50

COc1cc(N2CCC(N3CCCCC3)CC2)ccc1Nc1nccc(-c2c(-c3cccc(C(=O)Nc4c(F)cccc4F)c3)nc3ccccn23)n1    1000 to 5000 nM
